system.name: T1, human LAP-TGFB1 Fc fusion (human)
T1 construct: also called human LAP-TGFβ1-Fc; human LAP-TGFβ-Fc isoform 1
method.description: BLI off-rate screen
recorded.endpoint: Binding response (nm)
Record the value in nm, omitting the unit from your answer.

Would you please look over these solved cases?
Notebook: VL Q90Y (55BIT) (Fab, V domains shown) VH: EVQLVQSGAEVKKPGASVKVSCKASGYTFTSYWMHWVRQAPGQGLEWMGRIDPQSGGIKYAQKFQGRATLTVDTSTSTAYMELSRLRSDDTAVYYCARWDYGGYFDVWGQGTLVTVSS VL: DIQMTQSPSSLSASVGDRVTITCRASQDITNYLNWYQQKPGKAVKLLIYYTSRLHSGVPSRFSGSGSGTDYTLTISSLQPEDFATYFCQYGDTLPWTFGQGTKLEIKR , Binding response read as 0.04

Notebook: VL Q27Y (41BIT) (Fab, V domains shown) VH: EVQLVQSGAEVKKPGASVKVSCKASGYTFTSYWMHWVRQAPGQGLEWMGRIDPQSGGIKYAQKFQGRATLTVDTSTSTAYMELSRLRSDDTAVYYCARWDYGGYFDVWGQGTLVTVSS VL: DIQMTQSPSSLSASVGDRVTITCRASYDITNYLNWYQQKPGKAVKLLIYYTSRLHSGVPSRFSGSGSGTDYTLTISSLQPEDFATYFCQQGDTLPWTFGQGTKLEIKR , Binding response read as 0.427

Notebook: VH D52Y (77BIT) (Fab, V domains shown) VH: EVQLVQSGAEVKKPGASVKVSCKASGYTFTSYWMHWVRQAPGQGLEWMGRIYPQSGGIKYAQKFQGRATLTVDTSTSTAYMELSRLRSDDTAVYYCARWDYGGYFDVWGQGTLVTVSS VL: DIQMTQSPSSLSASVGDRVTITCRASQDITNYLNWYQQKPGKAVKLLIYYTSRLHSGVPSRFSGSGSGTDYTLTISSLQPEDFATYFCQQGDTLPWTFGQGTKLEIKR , Binding response read as 0.042

Notebook: VH D96Y (64BIT) (Fab, V domains shown) VH: EVQLVQSGAEVKKPGASVKVSCKASGYTFTSYWMHWVRQAPGQGLEWMGRIDPQSGGIKYAQKFQGRATLTVDTSTSTAYMELSRLRSDDTAVYYCARWYYGGYFDVWGQGTLVTVSS VL: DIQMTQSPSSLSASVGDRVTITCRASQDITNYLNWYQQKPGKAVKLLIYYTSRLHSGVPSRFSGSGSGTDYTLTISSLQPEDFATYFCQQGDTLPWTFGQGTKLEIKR , Binding response read as 0.102

Notebook: VL S52Y (49BIT) (Fab, V domains shown) VH: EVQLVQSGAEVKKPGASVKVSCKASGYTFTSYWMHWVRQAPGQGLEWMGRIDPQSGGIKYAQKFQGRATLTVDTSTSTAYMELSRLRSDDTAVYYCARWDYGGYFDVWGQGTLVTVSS VL: DIQMTQSPSSLSASVGDRVTITCRASQDITNYLNWYQQKPGKAVKLLIYYTYRLHSGVPSRFSGSGSGTDYTLTISSLQPEDFATYFCQQGDTLPWTFGQGTKLEIKR , Binding response read as 0.431

---
Notebook: VH I57Y (83BIT) (Fab, V domains shown) VH: EVQLVQSGAEVKKPGASVKVSCKASGYTFTSYWMHWVRQAPGQGLEWMGRIDPQSGGYKYAQKFQGRATLTVDTSTSTAYMELSRLRSDDTAVYYCARWDYGGYFDVWGQGTLVTVSS VL: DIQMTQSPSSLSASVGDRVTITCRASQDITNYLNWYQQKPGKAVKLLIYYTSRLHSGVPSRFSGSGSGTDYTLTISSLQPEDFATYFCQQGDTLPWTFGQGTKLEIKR , Binding response read as 0.555

Notebook: VH F29Y (68BIT) (Fab, V domains shown) VH: EVQLVQSGAEVKKPGASVKVSCKASGYTYTSYWMHWVRQAPGQGLEWMGRIDPQSGGIKYAQKFQGRATLTVDTSTSTAYMELSRLRSDDTAVYYCARWDYGGYFDVWGQGTLVTVSS VL: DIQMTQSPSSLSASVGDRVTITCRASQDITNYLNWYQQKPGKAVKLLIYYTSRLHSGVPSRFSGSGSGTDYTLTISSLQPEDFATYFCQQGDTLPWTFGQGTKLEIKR , Binding response read as 0.597

Notebook: VL Q89Y (54BIT) (Fab, V domains shown) VH: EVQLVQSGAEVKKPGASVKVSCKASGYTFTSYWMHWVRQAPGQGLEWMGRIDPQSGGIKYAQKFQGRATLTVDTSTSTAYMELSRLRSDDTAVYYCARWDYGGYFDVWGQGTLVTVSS VL: DIQMTQSPSSLSASVGDRVTITCRASQDITNYLNWYQQKPGKAVKLLIYYTSRLHSGVPSRFSGSGSGTDYTLTISSLQPEDFATYFCYQGDTLPWTFGQGTKLEIKR , Binding response read as 0.035

Notebook: VL L94Y (59BIT) (Fab, V domains shown) VH: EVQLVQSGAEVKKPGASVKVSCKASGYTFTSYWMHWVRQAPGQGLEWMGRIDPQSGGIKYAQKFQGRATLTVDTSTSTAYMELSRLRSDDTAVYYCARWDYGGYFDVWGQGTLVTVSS VL: DIQMTQSPSSLSASVGDRVTITCRASQDITNYLNWYQQKPGKAVKLLIYYTSRLHSGVPSRFSGSGSGTDYTLTISSLQPEDFATYFCQQGDTYPWTFGQGTKLEIKR , Binding response read as 0.308

Notebook: VH G55Y (81BIT) (Fab, V domains shown) VH: EVQLVQSGAEVKKPGASVKVSCKASGYTFTSYWMHWVRQAPGQGLEWMGRIDPQSYGIKYAQKFQGRATLTVDTSTSTAYMELSRLRSDDTAVYYCARWDYGGYFDVWGQGTLVTVSS VL: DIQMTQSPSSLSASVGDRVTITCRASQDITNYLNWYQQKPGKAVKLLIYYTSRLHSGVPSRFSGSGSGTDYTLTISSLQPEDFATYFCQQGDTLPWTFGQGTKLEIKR , Binding response read as 0.542
